Target: T1, HLA-A*01:01 (human)
T1 construct: Peptide-receptive MHC class I monomer after UV cleavage of a UV-sensitive ligand; captured on streptavidin plates, detected with anti-b2m
Experiment: UV-ligand exchange, anti-b2m ELISA; peptide exchange yield grade
peptide exchange yield by entry:

binder	peptide exchange yield
ILFSDSTRLSF	50 to 75%
ISDITEKNSGLY	≥ 75%
NHITDTSLNLF	20 to 50%
FTDTSSYEY	≥ 75%
HADLTTLTF	20 to 50%
HVDNSNLNY	≥ 75%
ITDTSLNLF	≥ 75%
EVQDHSTSSY	20 to 50%
PSDGSMHNY	≥ 75%
GQYDDSLQAY	20 to 50%
VTETMGIDGSAY	≥ 75%
ILPDITTTY	20 to 50%
HVSDVTVNY	20 to 50%
HVKDATMGY	50 to 75%
GTDQTGKGLEY	50 to 75%
LSDLTCNNY	≥ 75%
VTRDDTASY	20 to 50%
